self-splicing fitness (ln) overview
assay: self-splicing fitness, log relative to wild type (ln ratio); higher = more splicing; Tetrahymena group I intron in knt gene, E. coli kanamycin selection, DiMSum; sequences stand for … in CUCUCU…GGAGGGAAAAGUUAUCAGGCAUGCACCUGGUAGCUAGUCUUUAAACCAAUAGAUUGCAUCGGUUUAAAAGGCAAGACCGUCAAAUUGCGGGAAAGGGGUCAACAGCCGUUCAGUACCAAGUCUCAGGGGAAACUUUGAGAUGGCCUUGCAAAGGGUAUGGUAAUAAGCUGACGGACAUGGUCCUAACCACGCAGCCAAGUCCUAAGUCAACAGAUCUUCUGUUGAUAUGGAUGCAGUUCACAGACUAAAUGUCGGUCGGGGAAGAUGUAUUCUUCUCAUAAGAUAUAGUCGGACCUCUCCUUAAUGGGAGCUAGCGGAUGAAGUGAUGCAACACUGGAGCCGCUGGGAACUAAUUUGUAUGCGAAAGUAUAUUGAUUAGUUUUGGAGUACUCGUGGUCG; details: 30 °C;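 note: selection with 25 µg/mL kanamycin versus none on LB agar overnight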

[
  {
    "querySequence": "GUGUAGCAAUAUUACGCUGC",
    "self-splicing fitness (ln)": -3.26
  }
]

Please look at this sequence and report its self-splicing fitness (ln): ACAAAGCAAUAUUACGGAUG
-1.59

Please look at this sequence and report its self-splicing fitness (ln): CAAGAGCAAUAUUACGGUGC
-3.03

Please look at this sequence and report its self-splicing fitness (ln): CCGGAGCAAUAUUACGCUGU
-4.31

Please look at this sequence and report its self-splicing fitness (ln): CUGCAGCAAUAUUACGAAAU
-3.51

Please look at this sequence and report its self-splicing fitness (ln): AAUAAGCAAUAUUACGUGUG
-1.05

Please look at this sequence and report its self-splicing fitness (ln): AAUUAGCAAUAUUACGACGU
0.421

Please look at this sequence and report its self-splicing fitness (ln): ACCAAGCAAUAUUACGUCAU
-3.16

Please look at this sequence and report its self-splicing fitness (ln): AUCAAGCAAUAUUACGUUAG
-3.1

Data origin: the supplement of paper PMC7877785
